molecular target: T1, MHC class I molecule A*0201 (biotin (bound to streptavidin-coated plate)); test: iTopia iScore
T1 construct: also called A2; HLA-A2
Record form. Attribute: iScore. Fill in for each entry.
Number only, please.

Please report iScore for the following binder: ECSEAARTV [5T4 9-mer peptide 34 ECSEAARTV]
0

Fill in iScore for record AGDGRLRLA [5T4 9-mer peptide 6 AGDGRLRLA]
0.023

State its iScore: RQLDLSHNP [5T4 9-mer peptide 73 RQLDLSHNP]
0

Quick one: give measured iScore for LVLLGWVSS [5T4 9-mer peptide 12 LVLLGWVSS]
0.122

Input AALLAGRAL [5T4 9-mer peptide 101 AALLAGRAL] , output reported iScore.
0.156

Read off the recorded iScore for TSSASSFSS [5T4 9-mer peptide 18 TSSASSFSS]
0.037

Determine from records and report iScore for FLTGNQLAV [5T4 9-mer peptide 49 FLTGNQLAV]
0.791

Report measured iScore; entry is SASSFSSSA [5T4 9-mer peptide 19 SASSFSSSA]
0.045
